# Target under test: I-E^d (Mus musculus, UniProt P01904+P01915)
# Construct: I-E^dA1-191LZFos; I-E^dB1-198LZJunBSP; made in house
# Sequence (P01904 with tags, fused parts or gaps): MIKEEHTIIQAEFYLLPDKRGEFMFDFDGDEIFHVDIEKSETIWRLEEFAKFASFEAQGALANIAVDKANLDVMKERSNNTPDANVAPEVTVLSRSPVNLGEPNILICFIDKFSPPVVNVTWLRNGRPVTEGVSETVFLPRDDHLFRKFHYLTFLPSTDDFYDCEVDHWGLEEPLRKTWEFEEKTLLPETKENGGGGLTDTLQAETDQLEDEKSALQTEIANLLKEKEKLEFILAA
# Sequence (P01915 with tags, fused parts or gaps): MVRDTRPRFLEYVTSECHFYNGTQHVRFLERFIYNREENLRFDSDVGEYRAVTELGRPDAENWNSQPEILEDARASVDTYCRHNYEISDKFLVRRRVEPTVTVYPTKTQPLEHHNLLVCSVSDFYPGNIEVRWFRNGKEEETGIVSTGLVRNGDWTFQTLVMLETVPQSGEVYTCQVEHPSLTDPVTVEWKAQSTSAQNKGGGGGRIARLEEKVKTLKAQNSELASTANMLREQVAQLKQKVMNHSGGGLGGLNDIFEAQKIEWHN
# Assay text: Direct LOCI peptide-MHC-II binding assay, I-E^d
Where no end group is shown, it is not given here.
Test readout: Kd (nM)
Report the value in nM with no unit label.

Reported Kd, sequence WMARRHAER [Brucella] : ____
6

* * *

Parameter Kd: see the listing below.
# Target under test: DRB3*0301 (DRA*0101/DRB3*0301) (Homo sapiens, UniProt P01903+P79483, A169T/A212P/D57E/G115V/L67V/Q178H/R103Q/R40L/Y55F)
# Construct: DRA*01011-181LZFos; DRB3*03011-190LZJunBSP; made in house
# Assay text: Direct LOCI peptide-MHC-II binding assay, DRB3*0301
Where no end group is shown, it is not given here.
// return numeric value only (unit: nM, not printed)

Solved entries:
>>> recorded_result("IQMLKNGKKIPKVEMS [Murine β2m]")
70
>>> recorded_result("HHHHHHIEGRFAALWFRNHFVFGGGTK [6xH Lambda 2(315)]")
1200
>>> recorded_result("PIVQNIQGQMVHQ [HIV]")
23
>>> recorded_result("YILLKKILSSRFNQM [Plasmodium Falciparum]")
1

Moving on to another sequence below.
Entry PLKAEIAQRLEDV [Influenza] has what Kd?
11
